target: Sulfotransferase 1A1 (Homo sapiens, UniProt P50225); test: Substrate activity at SULT1A1 (unknown origin) expressed in baculovirus infected Sf9 cells assessed as substrate Km incubated for 15 mins using [35S-]PAPS as sulfate donor by TLC analysis; settings: sf9, 0.25 h, BLD = below limit of detection
Sequence (P50225 whole entry): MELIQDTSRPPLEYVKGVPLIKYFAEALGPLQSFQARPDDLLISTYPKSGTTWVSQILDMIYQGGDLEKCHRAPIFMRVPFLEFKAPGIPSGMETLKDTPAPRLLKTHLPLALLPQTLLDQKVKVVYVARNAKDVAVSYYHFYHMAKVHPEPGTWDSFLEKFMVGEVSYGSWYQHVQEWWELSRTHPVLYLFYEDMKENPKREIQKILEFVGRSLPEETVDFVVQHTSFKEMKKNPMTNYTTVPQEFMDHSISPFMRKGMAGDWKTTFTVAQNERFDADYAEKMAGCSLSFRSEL

| compound | Km |
| --- | --- |
| COc1ccc(-c2nc3ccc(O)cc3s2)cc1 | Bld |
| CNc1ccc(-c2nc3ccc(O)cc3s2)cc1 [PITTSBURGH COMPOUND B UNLABELLED] | Bld |
| N#Cc1ccc(-c2nc3ccc(O)cc3s2)cc1 | Bld |

###

target: Sulfotransferase 2A1 (Homo sapiens, UniProt Q06520); test: Substrate activity at SULT2A1 (unknown origin) expressed in baculovirus infected Sf9 cells assessed as substrate Km incubated for 15 mins using [35S-]PAPS as sulfate donor by TLC analysis; conditions: sf9, 0.25 h, BLD = below limit of detection
Sequence (Q06520 whole entry): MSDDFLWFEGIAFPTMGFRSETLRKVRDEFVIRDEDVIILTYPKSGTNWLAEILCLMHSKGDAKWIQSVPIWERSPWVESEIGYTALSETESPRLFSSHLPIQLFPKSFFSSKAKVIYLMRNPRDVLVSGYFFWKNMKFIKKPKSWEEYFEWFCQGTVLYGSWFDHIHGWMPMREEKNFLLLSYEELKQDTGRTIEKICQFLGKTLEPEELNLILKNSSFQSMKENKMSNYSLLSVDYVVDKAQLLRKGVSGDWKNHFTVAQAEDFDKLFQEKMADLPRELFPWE
measured.property: Km

| compound | Km |
| --- | --- |
| Oc1ccc2ncoc2c1 | Bld |
| Cc1nc2cc(O)ccc2s1 | Bld |
| Oc1ccc2[nH]ccc2c1 | Bld |
| Oc1ccc2nc(-c3ccc(F)cc3)sc2c1 | Bld |
| Nc1ccc(-c2nc3ccc(O)cc3s2)cc1 | Bld |
| Oc1ccc2nc(-c3ccc(I)cc3)sc2c1 | Bld |
| CNc1ccc(-c2nc3ccc(O)cc3s2)cc1 [PITTSBURGH COMPOUND B UNLABELLED] | Bld |
| Oc1ccc2ccsc2c1 | Bld |

GET /value?item= `Oc1ccc2ccoc2c1` &field=Km returns Bld

Record `CN(C)c1ccc(-c2nc3ccc(O)cc3s2)cc1` . Reported Km: Bld

Form field Km, entry `O=[N+]([O-])c1ccc(-c2nc3ccc(O)cc3s2)cc1` : Bld

Measured Km, `CNc1ccc(-c2nc3cc(O)ccc3s2)cc1` : Bld

For this compound ( `N#Cc1ccc(-c2nc3ccc(O)cc3s2)cc1` ), measured Km is Bld

`Oc1ccc2cc[nH]c2c1` has a reported Km of Bld

Entry `CS(=O)(=O)c1ccc(-c2nc3ccc(O)cc3s2)cc1` , Km reported as Bld

Please fill in: Km reported for `Cc1nc2ccc(O)cc2s1` = Bld

For record `COc1ccc(-c2nc3ccc(O)cc3s2)cc1` the listed Km is Bld

Value of Km reported for the compound `CN(C)c1ccc(-c2nc3cc(O)ccc3s2)cc1` is Bld

Per the record, `Oc1ccc2nc(-c3ccccc3)sc2c1` has Km of Bld
